Cited source for all entries: patent US12692274B2

# System: NQO1 activation in BEAS-2B cells
# Procedure Summary: BEAS-2B cellular MTT assay of NQO1 activation, 0% HSA
# Type: cell-based
# Assay Setup: Homo sapiens, serum free, read-out: BEAS EC50 (nM) serum free
Quantity Name: log10(EC50) (log10 of the value in nM)
All values: log10 EC50 [nM].

API: value(readout= log10(EC50), system= NQO1 activation in BEAS-2B cells, query= Cc1c2ccc3c1nnn3CCCCCOc1ccc(c(F)c1)C(=O)N1CCc3ccc(cc3C1)C2CC(=O)O (stereo not drawn) ) 2.15

API: value(readout= log10(EC50), system= NQO1 activation in BEAS-2B cells, query= O=C(O)CC1c2ccc3c(c2)CN(CC3)C(=O)c2ccc(cn2)OCCCCCCn2nnc3cc1ccc32 (stereo not drawn) ) 3.83

API: value(readout= log10(EC50), system= NQO1 activation in BEAS-2B cells, query= O=C(O)CC1c2ccc3c(c2)CN(CC3)C(=O)c2ncc(cc2F)CCCCCn2nnc3c(Cl)c1ccc32 (stereo not drawn) ) 2.39

API: value(readout= log10(EC50), system= NQO1 activation in BEAS-2B cells, query= Cc1c2cnc3c1nnn3CCCCCCc1ccc(c(F)c1)C(=O)N1CCc3ccc(cc3C1)C2CC(=O)O (stereo not drawn) ) -0.70

API: value(readout= log10(EC50), system= NQO1 activation in BEAS-2B cells, query= Cc1c2ccc3c1nnn3CCCCCc1ccc(cc1F)C(=O)N1CCc3ccc(cc3C1)C2CC(=O)O (stereo not drawn) ) 0.59

API: value(readout= log10(EC50), system= NQO1 activation in BEAS-2B cells, query= Cc1c2ccc3c1nnn3CCCCCCc1ccc3c(c1)nc(n3C)C(=O)N1CCc3ccc(cc3C1)C2CC(=O)O (stereo not drawn) ) 1.81
